Reference source for all entries: patent US9296734B2

- target under test: Beta Secretase enzyme (BACE) (Homo sapiens (Human), UniProt P56817)
- Sequence (P56817 46-501): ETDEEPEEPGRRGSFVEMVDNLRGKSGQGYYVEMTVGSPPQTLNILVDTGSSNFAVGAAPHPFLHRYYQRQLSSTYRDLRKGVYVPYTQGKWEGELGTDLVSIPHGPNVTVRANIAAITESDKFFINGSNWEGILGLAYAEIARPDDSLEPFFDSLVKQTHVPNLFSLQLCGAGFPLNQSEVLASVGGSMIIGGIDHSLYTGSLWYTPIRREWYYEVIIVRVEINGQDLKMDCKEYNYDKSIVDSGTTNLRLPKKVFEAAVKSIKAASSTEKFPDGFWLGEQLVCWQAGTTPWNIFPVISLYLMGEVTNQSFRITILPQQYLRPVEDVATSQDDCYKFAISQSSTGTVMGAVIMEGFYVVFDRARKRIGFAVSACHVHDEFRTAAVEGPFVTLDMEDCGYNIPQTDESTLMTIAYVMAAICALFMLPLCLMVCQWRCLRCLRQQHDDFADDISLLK
- measurement protocol: In vitro enzymatic BACE FRET assay
- Type: biochemical
- experimental parameters: average IC50; read-out: BACE 1 FRET assay IC50
Please provide measured IC50 for the entries that follow.
Answer format: number, then unit.

Ask: Tell me reported IC50 for Cn1cc(NC(=O)c2ccc(Cl)cn2)cc([C@]2(C)C[C@@H](C(F)(F)F)OC(N)=N2)c1=O [Example 148] , tested with Beta Secretase enzyme (BACE) (Homo sapiens (Human), UniProt P56817).
Result: 366 nM

Ask: Entry Cc1cc(C#N)cnc1C(=O)Nc1cnc(F)c([C@]2(C)C[C@@H](C(F)(F)F)OC(N)=N2)c1 [Example 67] , system Beta Secretase enzyme (BACE) (Homo sapiens (Human), UniProt P56817): what IC50 was measured?
Result: 34.8 nM

Ask: Test system Beta Secretase enzyme (BACE) (Homo sapiens (Human), UniProt P56817); read-out IC50; what value for C[C@@]1(c2nc(NC(=O)c3ccc(C#N)cn3)ccc2F)C[C@@H](C(F)(F)F)OC(N)=N1 [Example 79] ?
Result: 30.4 nM

Ask: Provide value of IC50 for this record tested with Beta Secretase enzyme (BACE) (Homo sapiens (Human), UniProt P56817): NC1=N[C@](CF)(c2cccc(Nc3nccc4cc(Cl)cnc34)c2)C[C@@H](C(F)(F)F)O1 [Example 146]
Result: 67 nM

Ask: Form field: IC50 recorded for NC1=N[C@](CF)(c2cc(Oc3nccc(C(F)(F)F)c3F)ccc2F)C[C@@H](C(F)(F)F)O1 [Example 109] with Beta Secretase enzyme (BACE) (Homo sapiens (Human), UniProt P56817) (enter value)
Result: 9520 nM
